Ref: patent US20190248902A1

study target: T1, human ASGR-1 (wild type) (human, UniProt P07306 1-291)
T1 construct: also called wt ASGR1; huASGR-1
T1 sequence: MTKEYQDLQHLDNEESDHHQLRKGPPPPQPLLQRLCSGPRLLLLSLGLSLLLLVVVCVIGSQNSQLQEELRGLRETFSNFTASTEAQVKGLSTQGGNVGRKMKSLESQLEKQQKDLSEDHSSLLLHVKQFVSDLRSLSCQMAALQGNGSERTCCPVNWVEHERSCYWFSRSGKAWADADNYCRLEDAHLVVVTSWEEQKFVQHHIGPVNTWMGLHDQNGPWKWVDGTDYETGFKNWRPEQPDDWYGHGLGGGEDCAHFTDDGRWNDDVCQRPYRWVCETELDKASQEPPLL
assay comment: FACS ratio: 65C12 geomean / this mAb geomean
Values of Expression Normalization to mAb 65C12 greater than or equal to 2 map to Criterion met; values below map to Criterion not met.

Consider the worked cases shown below.
• 191G10 (antibody, V domains shown, mAb) VH: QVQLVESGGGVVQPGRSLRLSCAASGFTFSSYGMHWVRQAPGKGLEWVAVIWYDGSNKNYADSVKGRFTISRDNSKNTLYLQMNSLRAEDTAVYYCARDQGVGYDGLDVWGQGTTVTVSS VL: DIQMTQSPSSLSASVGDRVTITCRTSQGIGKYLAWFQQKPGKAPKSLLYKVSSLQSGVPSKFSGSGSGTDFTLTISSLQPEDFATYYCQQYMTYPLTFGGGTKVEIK = Criterion not met
• 194C1 (antibody, V domains shown, mAb) VH: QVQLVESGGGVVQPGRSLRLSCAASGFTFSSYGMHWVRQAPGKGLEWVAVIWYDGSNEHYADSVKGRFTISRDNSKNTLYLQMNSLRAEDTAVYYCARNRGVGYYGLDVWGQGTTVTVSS VL: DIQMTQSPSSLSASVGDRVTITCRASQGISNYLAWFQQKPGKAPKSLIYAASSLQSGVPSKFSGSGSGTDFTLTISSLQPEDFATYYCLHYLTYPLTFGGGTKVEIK = Criterion met
• 5E5 (antibody, V domains shown, mAb) VH: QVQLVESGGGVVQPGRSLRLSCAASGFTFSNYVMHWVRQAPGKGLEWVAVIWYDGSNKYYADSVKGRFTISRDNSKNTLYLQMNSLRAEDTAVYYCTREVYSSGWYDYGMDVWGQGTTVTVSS VL: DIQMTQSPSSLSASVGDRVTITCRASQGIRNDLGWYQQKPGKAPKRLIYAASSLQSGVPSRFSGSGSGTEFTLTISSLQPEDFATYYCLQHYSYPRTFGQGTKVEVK = Criterion not met

Query: Could you verify whether the entry 198G3 (antibody, V domains shown, mAb) VH: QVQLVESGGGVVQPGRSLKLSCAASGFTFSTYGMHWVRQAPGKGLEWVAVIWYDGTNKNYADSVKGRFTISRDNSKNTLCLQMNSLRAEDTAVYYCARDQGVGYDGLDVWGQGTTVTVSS VL: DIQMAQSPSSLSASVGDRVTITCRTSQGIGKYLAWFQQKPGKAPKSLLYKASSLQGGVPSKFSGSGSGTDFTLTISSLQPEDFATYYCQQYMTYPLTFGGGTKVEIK shows Expression Normalization to mAb 65C12 of no less than 2?
Result: Criterion met

Query: Could you verify whether the entry 151B9 (antibody, V domains shown, mAb) VH: EVQLLESGGGLVQPGGSLRLSCAASGFTFSSYAMSWVRQAPGKGLEWVSVISGGGSSTYYADSVKGRFTISRDNSKNTLYLQMNSLRAEDTAVYYCAKWRGNPTDYGMDVWGQGTTVTVSS VL: SYELTQPPSVSVSPGQTASIACSGDNLGDKYASWYQQKPGQSPVLVIYQDSKRPSGIPERFSGSNSGNTATLTISGIQAMDEADYYCQAWDSSTVVFGGGTKLTVL shows Expression Normalization to mAb 65C12 of no less than 2?
Result: Criterion met
